compounds and their reported Percent Effect
Biological target: Aspartate--tRNA(Asp/Asn) ligase (Mycobacterium tuberculosis (strain ATCC 25618 / H37Rv)) (UniProt P9WFW3)
Sequence (P9WFW3 whole entry): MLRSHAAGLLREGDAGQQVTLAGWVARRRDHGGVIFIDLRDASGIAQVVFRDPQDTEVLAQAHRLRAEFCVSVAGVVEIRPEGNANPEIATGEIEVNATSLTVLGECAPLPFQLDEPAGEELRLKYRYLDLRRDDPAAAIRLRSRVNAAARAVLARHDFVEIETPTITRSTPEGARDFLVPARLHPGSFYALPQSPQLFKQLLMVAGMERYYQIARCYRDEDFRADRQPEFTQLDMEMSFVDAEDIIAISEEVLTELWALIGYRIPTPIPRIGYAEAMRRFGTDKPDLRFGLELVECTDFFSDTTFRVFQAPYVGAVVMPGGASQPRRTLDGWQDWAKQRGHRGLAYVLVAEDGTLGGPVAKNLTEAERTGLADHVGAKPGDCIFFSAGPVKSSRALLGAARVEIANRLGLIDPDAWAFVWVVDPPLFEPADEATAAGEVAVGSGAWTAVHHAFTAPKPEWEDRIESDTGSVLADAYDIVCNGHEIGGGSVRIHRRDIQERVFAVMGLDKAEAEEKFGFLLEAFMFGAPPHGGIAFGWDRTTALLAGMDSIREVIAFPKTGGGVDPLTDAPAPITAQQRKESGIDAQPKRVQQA
Assay: Assay for Asp RNA synthetase-1 from Mycobacterium tuberculosis
Assay type: functional
Set-up: scale not given: in the data most compounds retested in dose-response had high values
Settings: 30 µM
parameter measured: Percent Effect (%)

compound=Cc1cccc(C(=O)N2CCN(S(C)(=O)=O)[C@@H](C)C2)c1C parameter_measured="Percent Effect" recorded_number=-3.1
compound="Cc1nc2ccccc2nc1CN(C)CC1CCCN1c1cccnn1 (stereo not given)" parameter_measured="Percent Effect" recorded_number=1.76
compound="CC(Cn1cccn1)NC(=O)Nc1ccc(N(C)C)nc1 (stereo not given)" parameter_measured="Percent Effect" recorded_number=1.98
compound="COC(=O)CCNC(=O)C1CC(=O)N(C2CCCC2)C1 (stereo not given)" parameter_measured="Percent Effect" recorded_number=0.859
compound=O=C(c1cnoc1)N1CCC[C@]2(C[C@H](Oc3ncccc3F)CO2)C1 parameter_measured="Percent Effect" recorded_number=-2.03
compound=Nc1cc2c(nn1)CCN(C(=O)CC1CCCC1)C2 parameter_measured="Percent Effect" recorded_number=-1.69
compound=Cc1ccc(Cl)cc1C(=O)N1CCC2(CC1)c1ccccc1[C@@H](N)[C@@H]2O parameter_measured="Percent Effect" recorded_number=-0.814
compound="c1ncc(Nc2nccc(C3CCCCN3CC3CCCCC3)n2)cn1 (stereo not given)" parameter_measured="Percent Effect" recorded_number=0.28
compound="c1ccc(N2CCCC3(CCN(Cc4nccs4)C3)C2)nc1 (stereo not given)" parameter_measured="Percent Effect" recorded_number=-1.46
compound=COCC(=O)N(C)Cc1cccc(Cl)c1 parameter_measured="Percent Effect" recorded_number=-0.779
compound="CC1CCN(C(CNC(=O)CCn2cccn2)c2cccs2)CC1 (stereo not given)" parameter_measured="Percent Effect" recorded_number=-0.241
compound=CC(=O)N1C[C@@H](c2ccsc2)[C@@H]2CN(Cc3cccc(Cl)c3)CC[C@@H]21 parameter_measured="Percent Effect" recorded_number=-0.368
compound="Cc1cccc2c1OCCC2NCc1c(C)nn(C)c1N(C)C (stereo not given)" parameter_measured="Percent Effect" recorded_number=0.256
compound=Cc1nnc(CN2CCN(CCOc3ccccc3C#N)CC2)n1C parameter_measured="Percent Effect" recorded_number=3.6
compound="Cc1ccc(S(=O)(=O)NC2CNC(=O)C2)cc1C (stereo not given)" parameter_measured="Percent Effect" recorded_number=-1.98
